Measurement target: HdP2X (Hypsibius dujardini, UniProt B8RGS2)
Construct: full-length, 480 residues, cDNA clone in pSPORT1; cRNA in Xenopus oocytes; P2X receptors are trimers
Sequence (B8RGS2 1-480): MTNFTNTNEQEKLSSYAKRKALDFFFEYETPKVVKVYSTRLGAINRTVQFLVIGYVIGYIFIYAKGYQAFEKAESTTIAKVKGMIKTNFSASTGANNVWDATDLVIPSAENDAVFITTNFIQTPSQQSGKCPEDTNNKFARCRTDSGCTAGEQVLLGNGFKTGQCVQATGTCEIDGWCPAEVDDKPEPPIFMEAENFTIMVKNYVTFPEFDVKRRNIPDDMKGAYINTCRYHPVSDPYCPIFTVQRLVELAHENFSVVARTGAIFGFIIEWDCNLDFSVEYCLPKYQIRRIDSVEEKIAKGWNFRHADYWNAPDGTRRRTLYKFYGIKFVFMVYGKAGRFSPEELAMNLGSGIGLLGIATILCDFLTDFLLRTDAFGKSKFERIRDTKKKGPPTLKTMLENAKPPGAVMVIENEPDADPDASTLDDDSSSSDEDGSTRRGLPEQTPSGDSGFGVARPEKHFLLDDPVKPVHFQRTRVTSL
Test: two-electrode voltage clamp, Xenopus oocytes
pIC50: −log10 of the molar value.
Assay metric: pIC50

INSERT INTO assay_data (smiles_str, reported_result) VALUES
  ('Cc1nc(N=Nc2ccc(S(=O)(=O)O)cc2S(=O)(=O)O)c(COP(=O)(O)O)c(C=O)c1O', 4.82),
  ('Cc1ccc(C(=O)Nc2ccc(S(=O)(=O)O)c3cc(S(=O)(=O)O)cc(S(=O)(=O)O)c23)cc1NC(=O)c1cccc(NC(=O)Nc2cccc(C(=O)Nc3cc(C(=O)Nc4ccc(S(=O)(=O)O)c5cc(S(=O)(=O)O)cc(S(=O)(=O)O)c45)ccc3C)c2)c1', 4.65);

---

Measurement target: HdP2X (Hypsibius dujardini)
Construct: full-length, 480 residues, cDNA clone in pSPORT1; cRNA in Xenopus oocytes; P2X receptors are trimers
Test: two-electrode voltage clamp, Xenopus oocytes
pEC50: −log10 of the molar value.
Assay metric: pEC50

P: Nc1ncnc2c1ncn2[C@@H]1O[C@H](COP(=O)(O)OP(=O)(O)OP(=O)(O)O)[C@@H](OC(=O)c2ccc(C(=O)c3ccccc3)cc2)[C@H]1O
Q: Nc1ncnc2c1ncn2[C@@H]1O[C@H](COP(=O)(O)OP(=O)(O)OP(=O)(O)O)[C@@H](O)[C@H]1O
Input line: Sorting by pEC50 in descending order, would P or Q appear first? API: response body contains the label of the selected item.
Output line: P
